- Tested on: phosphorylation of eIF4E at ser209 in MV4.11 cell line
- Assay text: MNK cellular activity phospho-eIF4E detection assay (Alphascreen Surefire)
- Type: cell-based
- Condition set: Homo sapiens; MV4.11 cell line, phospho-eIF4E (ser209) Alphascreen Surefire; read-out: P(IC50) elF4E (converted)
- Procedure: The assay detection is based on the formation of sandwich antibody complexes coupled to donor and acceptor beads. […] Cells were then lysed and the Alphascreen Surefire protocol followed according to manufacturer's recommendations. […] 3 ul Donor beads (1:20 dilution in kit dilution buffer) were then added, shaken 150 rpm for 2 min and incubated for a further 1.5 hr at room temperature after which the plates were read on Pherastar FS using Alphascreen optic module. […]
Each item that follows carries a reported IC50.
Measured metric: IC50 (µM)

{"columns": ["Compound", "Assay value"],
 "data": [
  ["CC(C)Oc1cc(F)ccc1Nc1ncnc2sc(C(=O)NCCC(=O)O)nc12 [Example 14]", 0.398],
  ["Nc1nc2c(N3CCc4cc(F)ccc43)ncnc2s1 [Example 83]", 0.126],
  ["CN(C)CCNc1nc2c(N3CCc4cc(F)ccc43)ncnc2s1 [Example 86]", 0.251],
  ["CC1(C)CN(c2ncnc3sc(C(=O)NCCCN4CCCC4)nc23)c2ccccc21 [Example 160]", 0.00794],
  ["O=C(NCC1CCNCC1)c1nc2c(Nc3ccc(F)cc3OC3CCCC3)ncnc2s1 [Example 51]", 0.126],
  ["C[C@H]1Cc2ccccc2N1c1ncnc2sc(C(=O)NC3CCOCC3)nc12 [Example 133]", 0.0501],
  ["CC(C)Oc1c(F)cccc1Nc1ncnc2sc(C(=O)NCCCN(C)C)nc12 [Example 18]", 0.0398],
  ["CC(C)Oc1cc(F)ccc1Nc1ncnc2sc(C(=O)NC3CNC3)nc12 [Example 28]", 0.0794],
  ["O=C(NC1CCOC1)c1nc2c(N3CCc4cc(F)ccc43)ncnc2s1 (stereo not drawn) [Example 77]", 0.00398],
  ["CO[C@H]1CCCC[C@@H]1Oc1cc(F)ccc1Nc1ncnc2sc(C(=O)NCCCN(C)C)nc12 [Example 21]", 0.316],
  ["C[C@@H]1Cc2ccccc2N1c1ncnc2sc(C(=O)NCC3CCNCC3)nc12 [Example 127]", 0.0158],
  ["CC(C)Oc1cc(F)ccc1Nc1ncnc2sc(C(=O)NC3CCNCC3)nc12 [Example 31]", 0.0501],
  ["O=C(NCC1CCNCC1)c1nc2c(Nc3ccc(F)cc3O[C@H]3CCOC3)ncnc2s1 [Example 54]", 0.2],
  ["O=C(NCCN1CCNCC1)c1nc2c(N3CCc4cc(F)ccc43)ncnc2s1 [Example 79]", 0.01],
  ["O=C(NCC1CCNCC1)c1nc2c(N3CCc4cc(Br)ccc43)ncnc2s1 [Example 169]", 0.0316],
  ["CC1Cc2ccccc2N1c1ncnc2sc(C(=O)NC3CCN(C)CC3)nc12 (stereo not drawn) [Example 123]", 0.02],
  ["CC1(C)CN(C(=O)c2nc3c(N4CCc5ccccc54)ncnc3s2)CCO1 [Example 102]", 0.631],
  ["CC(C)Oc1cc(F)ccc1Nc1ncnc2sc(C(=O)NCCCO)nc12 [Example 8]", 0.0631]
]}

* * *

- Target entity: Full-length human MNK2 (Homo sapiens, UniProt Q9HBH9, T379D)
- Construct: GST (N); purchased Carna Biosciences 02-146; host or cells: baculovirus expression system
- Sequence (Q9HBH9 whole entry T379D): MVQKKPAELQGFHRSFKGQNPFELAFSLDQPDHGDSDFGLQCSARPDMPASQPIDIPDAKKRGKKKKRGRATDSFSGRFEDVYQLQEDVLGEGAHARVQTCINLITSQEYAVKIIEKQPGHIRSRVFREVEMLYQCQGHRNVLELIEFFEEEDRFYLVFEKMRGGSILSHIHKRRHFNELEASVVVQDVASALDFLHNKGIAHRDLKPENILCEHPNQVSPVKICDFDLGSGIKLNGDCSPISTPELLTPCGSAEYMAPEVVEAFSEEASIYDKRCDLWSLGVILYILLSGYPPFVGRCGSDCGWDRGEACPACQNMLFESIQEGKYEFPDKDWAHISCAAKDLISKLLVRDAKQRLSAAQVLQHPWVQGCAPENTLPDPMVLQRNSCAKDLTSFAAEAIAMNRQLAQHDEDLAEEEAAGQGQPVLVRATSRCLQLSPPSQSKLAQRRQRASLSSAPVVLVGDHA
- Assay text: MNK2 biochemical IC50 assay (Caliper Mobility Shift Assay)
- Condition set: read-out: P(IC50) MNK2 (converted)
Class (required): determined from IC50; valid ranges are low band (below 20 nM), middle band (20 nM to below 100 nM), high band (100 nM or more)

{"columns": ["Compound", "Target entity", "Cat"],
 "data": [
  ["O=C(NC1CCOCC1)c1nc2c(N3CCc4cnccc43)ncnc2s1 [Example 43]", "Full-length human MNK2 (Homo sapiens, UniProt Q9HBH9, T379D)", "middle band"],
  ["O=C(NCC1CCNCC1)c1nc2c(Nc3ccccc3-c3ccco3)ncnc2s1 [Example 62]", "Full-length human MNK2 (Homo sapiens, UniProt Q9HBH9, T379D)", "high band"],
  ["CNCCNC(=O)c1nc2c(Nc3ccc(F)cc3OC(C)C)ncnc2s1 [Example 30]", "Full-length human MNK2 (Homo sapiens, UniProt Q9HBH9, T379D)", "high band"],
  ["CC1(CCO)CN(c2ncnc3sc(C(=O)NC4CCOCC4)nc23)c2ccccc21 (stereo not drawn) [Example 113]", "Full-length human MNK2 (Homo sapiens, UniProt Q9HBH9, T379D)", "middle band"],
  ["CC(C)Oc1cc(F)ccc1Nc1ncnc2sc(C(=O)NCC(O)CO)nc12 (stereo not drawn) [Example 12]", "Full-length human MNK2 (Homo sapiens, UniProt Q9HBH9, T379D)", "middle band"],
  ["CNCCCNC(=O)c1nc2c(N3CC(C)(C)c4ccccc43)ncnc2s1 [Example 159]", "Full-length human MNK2 (Homo sapiens, UniProt Q9HBH9, T379D)", "low band"],
  ["CN(C)CCCNC(=O)c1nc2c(Nc3cccc4c3OCC4)ncnc2s1 [Example 26]", "Full-length human MNK2 (Homo sapiens, UniProt Q9HBH9, T379D)", "high band"],
  ["CC(C)Oc1cc(F)ccc1Nc1ncnc2sc(C(=O)NCCCN3CCCC3)nc12 [Example 13]", "Full-length human MNK2 (Homo sapiens, UniProt Q9HBH9, T379D)", "middle band"],
  ["CNCCC1CN(c2ncnc3sc(C(=O)NC4CCOCC4)nc23)c2ccc(F)cc21 (stereo not drawn) [Example 147]", "Full-length human MNK2 (Homo sapiens, UniProt Q9HBH9, T379D)", "low band"],
  ["CN1CCC(CNC(=O)c2nc3c(N4CCc5cccc(F)c54)ncnc3s2)CC1 [Example 93]", "Full-length human MNK2 (Homo sapiens, UniProt Q9HBH9, T379D)", "high band"],
  ["O=C(Nc1nc2c(N3CCc4cc(F)ccc43)ncnc2s1)C1CCOC1 (stereo not drawn) [Example 84]", "Full-length human MNK2 (Homo sapiens, UniProt Q9HBH9, T379D)", "low band"],
  ["NCC1CN(c2ncnc3sc(C(=O)NC4CCOCC4)nc23)c2ccccc21 (stereo not drawn) [Example 119]", "Full-length human MNK2 (Homo sapiens, UniProt Q9HBH9, T379D)", "low band"]
]}
